- tested_target: HLA B*0801 (Homo sapiens, UniProt P01889, A93T/A95T/D138N/E176V/E187T/K202T/Q94N/R180D/S35A/V36M/Y33D/Y91F)
- procedure_summary: biochemical
- Assay type: binding
Where a SMILES comes first, the peptide text is derived from it.
Measured IC50 accompanies every entry in the list below.
Form entry: value (nM) — number only.

{"columns": ["compound", "IC50 [nM]"],
 "data": [
  ["CC[C@H](C)[C@H](NC(=O)[C@@H](N)CCCNC(=N)N)C(=O)N[C@@H](CCCNC(=N)N)C(=O)N[C@@H](CCCNC(=N)N)C(=O)N[C@@H](Cc1ccccc1)C(=O)N[C@@H](CCCNC(=N)N)C(=O)N[C@@H](CCCNC(=N)N)C(=O)N1CCC[C@H]1C(=O)N[C@@H](CCSC)C(=O)O [3102.0681] (H-RIRRFRRPM-OH)", 8.9],
  ["CC[C@H](C)[C@H](NC(=O)[C@@H](N)CCCNC(=N)N)C(=O)N[C@@H](CC(C)C)C(=O)N[C@@H](Cc1ccccc1)C(=O)N[C@@H](CCCNC(=N)N)C(=O)N[C@@H](CCCCN)C(=O)N1CCC[C@H]1C(=O)N[C@@H](CO)C(=O)N[C@@H](CC(C)C)C(=O)O [3102.0787] (H-RILFRKPSL-OH)", 32]
]}

Moving on to the next compound.
Record request: IC50 value, item CSCC[C@H](NC(=O)[C@H](C)NC(=O)[C@H](CC(C)C)NC(=O)[C@H](CO)NC(=O)[C@H](CCCCN)NC(=O)[C@H](CCSC)NC(=O)[C@H](CCCNC(=N)N)NC(=O)[C@H](CCCCN)NC(=O)[C@@H](N)CC(=O)O)C(=O)O [3102.0560] (H-DKRMKSLAM-OH)
9.9

* * *

- tested_target: HLA B*1501 (Homo sapiens, UniProt P01889, A329T/A93T/A95T/C349S/D201E/D98Y/E187L/E204Q/E69M/E70A/K202T/N87E/Q94N/R155S/R180W/S121R/S35A/S48A/V306I/V36M/Y140S/Y91S)
- procedure_summary: biochemical
Where a SMILES comes first, the peptide text is derived from it.
endpoint_label: IC50
The reply should consist of the numeric value with the unit placed after it.

Record request: IC50 value, item CSCC[C@H](NC(=O)[C@H](CO)NC(=O)[C@@H](NC(=O)[C@H](CC(C)C)NC(=O)[C@H](CCCCN)NC(=O)[C@H](CO)NC(=O)[C@@H](N)Cc1ccc(O)cc1)[C@@H](C)O)C(=O)N[C@@H](Cc1c[nH]cn1)C(=O)N[C@@H](Cc1ccccc1)C(=O)O [3102.0944] (H-YSKLTSMHF-OH)
0.57 nM

Record request: IC50 value, item CC(C)C[C@H](NC(=O)[C@@H](NC(=O)[C@H](CCCCN)NC(=O)[C@H](CCCCN)NC(=O)[C@H](C)NC(=O)[C@@H](N)CC(C)C)[C@@H](C)O)C(=O)N[C@@H](C)C(=O)N1CCC[C@H]1C(=O)N[C@@H](Cc1ccccc1)C(=O)O [3102.0825] (H-LAKKTLAPF-OH)
2.1 nM

Record request: IC50 value, item CSCC[C@H](NC(=O)[C@@H](NC(=O)[C@H](CO)NC(=O)CNC(=O)[C@H](CC(=O)O)NC(=O)[C@@H](NC(=O)[C@@H](NC(=O)[C@H](CCSC)NC(=O)[C@@H](N)Cc1ccc(O)cc1)C(C)C)C(C)C)C(C)C)C(=O)O [3102.1153] (H-YMVVDGSVM-OH)
2.5 nM

Record request: IC50 value, item CC(C)C[C@H](NC(=O)[C@H](C)N)C(=O)N[C@@H](CCCNC(=N)N)C(=O)N1CCC[C@H]1C(=O)N[C@@H](CO)C(=O)N[C@@H](CO)C(=O)N[C@@H](CCC(N)=O)C(=O)N[C@H](C(=O)N[C@@H](Cc1ccccc1)C(=O)O)C(C)C [3102.1320] (H-ALRPSSQVF-OH)
1.5 nM

Record request: IC50 value, item CSCC[C@H](NC(=O)[C@H](Cc1c[nH]cn1)NC(=O)[C@H](CCCCN)NC(=O)[C@H](CC(N)=O)NC(=O)[C@@H](NC(=O)[C@H](CC(N)=O)NC(=O)[C@H](CO)NC(=O)[C@H](CCC(N)=O)NC(=O)[C@@H](N)CCCCN)[C@@H](C)O)C(=O)O [3102.1026] (H-KQSNTNKHM-OH)
28 nM

Record request: IC50 value, item CC[C@H](C)[C@H](NC(=O)[C@H](CC(N)=O)NC(=O)[C@H](CC(N)=O)NC(=O)[C@@H](NC(=O)[C@@H](N)CO)[C@@H](C)CC)C(=O)N[C@@H](CC(=O)O)C(=O)N1CCC[C@H]1C(=O)N[C@@H](Cc1c[nH]cn1)C(=O)N[C@@H](Cc1ccccc1)C(=O)O [3102.1039] (H-SINNIDPHF-OH)
12 nM

Record request: IC50 value, item CC[C@H](C)[C@H](NC(=O)[C@H](CO)NC(=O)[C@@H](N)CC(C)C)C(=O)N[C@@H](CC(N)=O)C(=O)N[C@@H](CO)C(=O)N[C@@H](CO)C(=O)N[C@@H](Cc1ccccc1)C(=O)N[C@@H](Cc1ccc(O)cc1)C(=O)N[C@@H](Cc1ccccc1)C(=O)O [3102.1034] (H-LSINSSFYF-OH)
1 nM

Record request: IC50 value, item CC(C)C[C@H](NC(=O)[C@H](CCC(=O)O)NC(=O)[C@H](CC(N)=O)NC(=O)[C@H](CCCNC(=N)N)NC(=O)[C@H](CC(=O)O)NC(=O)[C@H](CCCCN)NC(=O)[C@H](CC(C)C)NC(=O)[C@@H](N)CC(C)C)C(=O)N[C@@H](Cc1ccccc1)C(=O)O [3102.0842] (H-LLKDRNELF-OH)
1.8 nM

Record request: IC50 value, item CC[C@H](C)[C@H](N)C(=O)N[C@H](C(=O)N[C@@H](C)C(=O)N[C@@H](Cc1c[nH]cn1)C(=O)N[C@@H](CC(C)C)C(=O)N[C@H](C(=O)N[C@@H](CC(N)=O)C(=O)N[C@@H](CO)C(=O)N[C@@H](CC(C)C)C(=O)O)C(C)C)[C@@H](C)O [3102.0503] (H-ITAHLVNSL-OH)
6.5 nM

Record request: IC50 value, item CC[C@H](C)[C@H](NC(=O)[C@H](CO)NC(=O)[C@H](CCCNC(=N)N)NC(=O)[C@H](CO)NC(=O)[C@H](CCSC)NC(=O)[C@H](CO)NC(=O)[C@H](CCCNC(=N)N)NC(=O)[C@@H](NC(=O)[C@@H](N)CO)[C@@H](C)CC)C(=O)O [3102.0527] (H-SIRSMSRSI-OH)
363 nM

* * *

- tested_target: HLA A*3201 (Homo sapiens, UniProt P04439, A270S/D101S/D185E/E176V/E277Q/F133L/G103R/G107R/G231S/H175R/I121M/I218V/I322F/K168Q/L105A/L300P/L318F/M331R/P208A/P217A/Q94H/R106L/R138Q/S129P/T104I/T323A/T345S/V100E/V321M/V358M)
- procedure_summary: biochemical
Where a SMILES comes first, the peptide text is derived from it.
endpoint_label: pIC50
Note on pIC50: it is the negative log10 of concentration, concentration in mol/L.

Here are 2 compounds together with their reported answers.
{"columns": ["compound", "endpoint_label", "assay_value"],
 "data": [
  ["CC[C@H](C)[C@H](NC(=O)[C@H](CC(C)C)NC(=O)[C@H](CC(C)C)NC(=O)[C@H](CC(C)C)NC(=O)[C@H](CC(C)C)NC(=O)[C@H](CC(N)=O)NC(=O)CNC(=O)[C@H](CC(C)C)NC(=O)[C@@H](N)CCCCN)C(=O)O [3102.0406] (H-KLGNLLLLI-OH)", "pIC50", 9.14],
  ["CC[C@H](C)[C@H](N)C(=O)N[C@@H](CC(C)C)C(=O)N[C@@H](CCSC)C(=O)N[C@H](C(=O)N[C@@H](Cc1ccccc1)C(=O)N[C@H](C(=O)N[C@@H](CO)C(=O)N[C@@H](CO)C(=O)N[C@@H](Cc1ccccc1)C(=O)O)[C@@H](C)CC)[C@@H](C)CC [3102.1302] (H-ILMIFISSF-OH)", "pIC50", 7.06]
]}

Record request: pIC50 value, item CC(C)C[C@H](NC(=O)[C@@H](NC(=O)[C@H](CC(N)=O)NC(=O)[C@H](C)NC(=O)[C@H](CC(N)=O)NC(=O)[C@H](Cc1ccc(O)cc1)NC(=O)[C@H](Cc1ccccc1)NC(=O)[C@H](CCC(N)=O)NC(=O)[C@@H](N)CCCNC(=N)N)C(C)C)C(=O)O [3102.1205] (H-RQFYNANVL-OH)
7.43
